Data credit: patent US20220372040A1

- MEASURED TARGET: METTL3/METTL14 (Homo sapiens)
- Sequence (Q86U44 whole entry, species assumed): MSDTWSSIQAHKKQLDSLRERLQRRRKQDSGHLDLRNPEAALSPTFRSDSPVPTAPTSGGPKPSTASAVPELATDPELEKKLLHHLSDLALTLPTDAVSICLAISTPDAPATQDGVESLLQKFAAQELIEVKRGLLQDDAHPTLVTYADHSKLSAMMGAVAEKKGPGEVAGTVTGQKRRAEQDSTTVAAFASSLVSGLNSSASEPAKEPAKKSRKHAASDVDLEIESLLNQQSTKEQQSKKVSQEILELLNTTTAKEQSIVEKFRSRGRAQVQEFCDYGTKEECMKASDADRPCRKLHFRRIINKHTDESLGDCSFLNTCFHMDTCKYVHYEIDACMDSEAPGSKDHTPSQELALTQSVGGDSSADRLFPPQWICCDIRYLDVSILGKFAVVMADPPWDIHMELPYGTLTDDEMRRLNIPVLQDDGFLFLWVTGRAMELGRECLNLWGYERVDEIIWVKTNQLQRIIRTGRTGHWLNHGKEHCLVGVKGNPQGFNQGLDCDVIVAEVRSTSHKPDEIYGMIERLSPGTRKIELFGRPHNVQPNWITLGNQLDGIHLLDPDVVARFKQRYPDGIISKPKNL
- Sequence (Q9HCE5 whole entry partner, species assumed): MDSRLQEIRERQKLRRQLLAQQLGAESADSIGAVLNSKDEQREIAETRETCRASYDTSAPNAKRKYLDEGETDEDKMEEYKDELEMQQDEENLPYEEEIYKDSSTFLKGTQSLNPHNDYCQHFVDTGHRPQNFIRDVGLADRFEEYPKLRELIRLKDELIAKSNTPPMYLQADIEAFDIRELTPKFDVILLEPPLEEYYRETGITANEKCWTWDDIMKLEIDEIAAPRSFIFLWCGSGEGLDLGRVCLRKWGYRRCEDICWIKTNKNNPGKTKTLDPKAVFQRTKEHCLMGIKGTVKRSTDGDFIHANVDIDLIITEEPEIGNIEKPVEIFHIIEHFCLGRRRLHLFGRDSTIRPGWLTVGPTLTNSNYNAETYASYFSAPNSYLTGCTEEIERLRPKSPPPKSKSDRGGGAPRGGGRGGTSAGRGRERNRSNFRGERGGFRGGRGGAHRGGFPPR
- ASSAY COMMENT: METTL3-14 standard enzyme assay (3H-SAM flashplate scintillation)
- ASSAY CONDITIONS: METTL3/METTL14 2.5 nM, RNA 100 nM, 3H-SAM 100 nM, 30 min
pIC50: −log10 of the molar value.
MEASURED METRIC: pIC50

Reference set (5 entries):
Nc1ncnc2c1ccn2-c1cncc(COc2ccc3ccc(N4CCCC4)nc3c2)c1 [Compound I-26]	7.00 to 8.00
CCc1cc(NCCOC)c2ccc(CCc3cncc(-n4cc(-c5ccn(C)n5)c5c(N)ncnc54)c3)cc2n1 [Compound I-115]	> 8.00
CNc1ccc2ccc(OCc3cc(C#N)cc(-n4ccc5c(N)ncnc54)c3)cc2n1 [Compound I-119]	6.00 to 7.00
C[C@H]1CCN1c1ccc2ccc(OCc3cncc(-n4cc(C5CCCC5)c5c(N)ncnc54)c3)cc2n1 [Compound I-125]	7.00 to 8.00
CNc1ccc2ccc(OCc3cc(C(N)=O)cc(-n4cc(Cl)c5c(N)ncnc54)c3)cc2n1 [Compound I-21]	6.00 to 7.00

Exercise: Entry Cn1ccc(-c2cn(-c3cncc(COc4ccc5ccc(N6CCC(F)(F)CC6)nc5c4)c3)c3ncnc(N)c23)n1 [Compound I-197] : reported pIC50 = ?
Solution: 6.00 to 7.00

Exercise: Try COc1ccccc1-c1cn(-c2cncc(COc3ccc4ccc(N5CCC5)nc4c3)c2)c2ncncc12 [Compound I-184] next.
Solution: < 6.00

---

- MEASURED TARGET: METTL3/METTL14 (Homo sapiens)
- ASSAY COMMENT: METTL3-14 standard enzyme assay (3H-SAM flashplate scintillation)
- ASSAY CONDITIONS: METTL3/METTL14 2.5 nM, RNA 100 nM, 3H-SAM 100 nM, 30 min
Documented IC50 across a set of compounds

CCc1cc(N(C)CC2CC2)c2ccc(OCc3cncc(-n4cc(-c5ccn(C)n5)c5c(N)ncnc54)c3)cc2n1	< 10 nM
Cn1ccc(-c2cn(-c3cncc(COc4ccc5ccc(N6CC(F)(F)C6)nc5c4)c3)c3ncnc(N)c23)n1	< 10 nM
CCc1ccc2ccc(OCc3cncc(-n4cc(-c5ccn(C)n5)c5c(N)ncnc54)c3)cc2n1	10 to 100 nM
CNc1ccc2ccc(OCc3cncc(-n4cc(-c5ccc(CNCCS(C)(=O)=O)o5)c5c(N)ncnc54)c3)cc2n1	< 10 nM
CNc1ccc2ccc(OCc3cncc(-n4cc(C5CCCO5)c5c(N)ncnc54)c3)cc2n1 (stereo not drawn)	< 10 nM

Exercise: Endpoint output: IC50 of CCc1nc(N)c2ccn(-c3cncc(COc4ccc5ccc(NC)nc5c4)c3)c2n1 . Value?
Solution: < 10 nM

Exercise: Try this compound next: CCc1cc(NCCOC)c2ccc(OCc3cncc(-n4cc(COC)c5c(N)ncnc54)c3)cc2n1
Solution: < 10 nM

Exercise: What about this compound? CCc1cc(N(C)C)c2ccc(OCc3cncc(-n4ccc5c(N)ncnc54)c3)cc2n1
Solution: 10 to 100 nM

Exercise: Field entry: CNc1ccc2ccc(OCc3cc(CO)cc(-n4cc(Cl)c5c(N)ncnc54)c3)cc2n1
Solution: < 10 nM

Exercise: Try this compound next: CNc1ccc2ccc(OCc3cncc(-n4cc(C5CCCC5)c5c(N)ncnc54)c3)cc2n1
Solution: < 10 nM

Exercise: Can you check CNc1ccc2ccc(OCc3cccc(-n4cc(CC5CC5)c5c(N)ncnc54)c3)cc2n1 next?
Solution: 10 to 100 nM

Exercise: Now the same for Cn1ccc(-c2cn(-c3cncc(COc4ccc5ccc(N6CCCC6=O)nc5c4)c3)c3ncnc(N)c23)n1
Solution: > 1000 nM

Exercise: # repeat for CNc1ccc2ccc(OCc3cncc(-n4ccc5c(N)nc(N(C)C)nc54)c3)cc2n1
Solution: > 1000 nM

Exercise: Can you check Cc1cc(NCCN(C)CCCCc2ccccc2)c2ccc(OCc3cncc(-n4ccc5c(N)ncnc54)c3)cc2n1 next?
Solution: 10 to 100 nM

Exercise: Also CNc1ccc2cc(CCc3cccc(-n4cc(Cl)c5c(N)ncnc54)c3)ccc2n1 ?
Solution: 100 to 1000 nM
